pKi: −log10 of the molar value.
Heads up, these molecules all have pKi values measured for UniProt P00591.
Sequence (P00591 whole entry): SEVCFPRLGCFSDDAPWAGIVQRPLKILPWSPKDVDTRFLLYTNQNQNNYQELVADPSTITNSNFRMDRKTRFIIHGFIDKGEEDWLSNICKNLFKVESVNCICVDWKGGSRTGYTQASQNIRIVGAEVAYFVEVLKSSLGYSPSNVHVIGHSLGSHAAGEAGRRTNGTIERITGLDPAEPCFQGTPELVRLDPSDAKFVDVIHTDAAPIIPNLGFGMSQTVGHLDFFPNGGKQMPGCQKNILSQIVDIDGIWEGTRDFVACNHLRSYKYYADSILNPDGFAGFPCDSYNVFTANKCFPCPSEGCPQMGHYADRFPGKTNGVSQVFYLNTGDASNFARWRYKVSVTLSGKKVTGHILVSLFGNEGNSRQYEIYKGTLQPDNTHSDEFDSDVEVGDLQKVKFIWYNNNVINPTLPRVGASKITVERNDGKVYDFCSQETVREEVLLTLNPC
PARAMETER MEASURED: pKi

Would you please look over these solved cases?
{"MOLECULE": "O=C(/C=C/c1ccc(O)cc1)OCCc1ccc(O)cc1", "ASSAY SYSTEM": "UniProt P00591", "pKi": 5.13}
{"MOLECULE": "COc1cc(O)cc(CCc2cccc(O)c2)c1 [Batatasin III (4)]", "ASSAY SYSTEM": "UniProt P00591", "pKi": 5.17}
{"MOLECULE": "COc1cc(O)cc(CCc2ccccc2O)c1 [2-(3-hydroxy-5-methoxyphenethyl)phenol]", "ASSAY SYSTEM": "UniProt P00591", "pKi": 5.20}

[I] COc1cc(CCc2ccccc2O)cc(OC)c1OC [Batatasin V (10)]
[II] COc1cc(/C=C/C=C/C(=O)CCc2ccc(O)cc2)ccc1O
Input line: // which entry has the larger pKi value, I or II ? Your choice should be expressed through its label.
Output line: II
(II: 5.66, I: 5.02)
